Tested on: Pseudomonas aeruginosa PA01
Protocol notes: Serum MIC, broth micro-dilution
Assay type: cell-based
Condition parameters: Pseudomonas aeruginosa, PA01; 50% v/v mouse serum in Mueller Hinton II cation adjusted Broth, 35° C., 22 hours; Table 4; read-out: P. aeruginosa 01 Serum MIC
Measured attribute: MIC (µM)

>  <Compound>
C[C@@H]1NC(=O)[C@@H](N(C)C(=O)[C@H](CNS(N)(=O)=O)NC(=O)c2cnn(-c3ccc(OC4CCCCC4)cc3)c(=O)c2)c2cc(OC[C@H](O)CN)c(O)c(c2)-c2cc(ccc2OC[C@H](O)CN)C[C@@H](C(=O)O)NC1=O [Example 9]

>  <Units>
µM

>  <MIC>
32

$$$$
>  <Compound>
CCC(C)(C)c1ccc(-c2nc(C)c(C(=O)N[C@@H](CNS(N)(=O)=O)C(=O)N(C)[C@@H]3C(=O)N[C@@H](C)C(=O)N[C@H](C(=O)O)Cc4ccc(OC[C@H](O)CN)c(c4)-c4cc3cc(OC[C@H](O)CN)c4O)c(N)n2)cc1 [Example 45]

>  <Units>
µM

>  <MIC>
3

$$$$
>  <Compound>
Cc1nc(-c2ccc(C(C)(C)C)cc2)cc(CN)c1C(=O)N[C@@H](CNS(N)(=O)=O)C(=O)N(C)[C@@H]1C(=O)N[C@@H](C)C(=O)N[C@H](C(=O)O)Cc2ccc(OC[C@H](O)CN)c(c2)-c2cc1cc(OC[C@H](O)CN)c2O [Example 63]

>  <Units>
µM

>  <MIC>
16

$$$$
>  <Compound>
CNc1nc(-c2ccc(C(C)(C)C)cc2)nc(C)c1C(=O)N[C@@H](CNS(N)(=O)=O)C(=O)N(C)[C@@H]1C(=O)N[C@@H](C)C(=O)N[C@H](C(=O)O)Cc2ccc(OC[C@H](O)CN)c(c2)-c2cc1cc(OC[C@H](O)CN)c2O [Example 56]

>  <Units>
µM

>  <MIC>
3

$$$$
>  <Compound>
Cc1nc(-c2ccc3c(c2)CCC3(C)C)nc(N)c1C(=O)N[C@@H](CCN)C(=O)N(C)[C@@H]1C(=O)N[C@@H](C)C(=O)N[C@H](C(=O)O)Cc2ccc(OC[C@H](O)CN)c(c2)-c2cc1cc(OC[C@H](O)CN)c2O [Example 47]

>  <Units>
µM

>  <MIC>
16

$$$$

[I] Cc1nc(-c2ccc(C(C)(C)C)cc2)nc(N)c1C(=O)N[C@@H](CNS(N)(=O)=O)C(=O)N(C)[C@@H]1C(=O)N[C@@H](C)C(=O)N[C@H](C(=O)O)Cc2ccc(OC[C@H](O)CN)c(c2)-c2cc1cc(OC[C@@H](O)CN)c2O [Example 50]
[II] Cc1nc(-c2ccc(C(C)(C)C)cc2O)cc(CN)c1C(=O)N[C@@H](CNS(N)(=O)=O)C(=O)N(C)[C@@H]1C(=O)N[C@@H](C)C(=O)N[C@H](C(=O)O)Cc2ccc(OC[C@H](O)CN)c(c2)-c2cc1cc(OC[C@H](O)CN)c2O [Example 65]
query: For I and II , which recorded MIC is lower? Reply briefly: the label of your chosen item.
result: I

###

Tested on: Pseudomonas aeruginosa PA01
Protocol notes: Serum MIC, broth micro-dilution
Format: cell-based
Condition parameters: Pseudomonas aeruginosa, PA01; 50% v/v mouse serum in Mueller Hinton II cation adjusted Broth, 35° C., 22 hours; Table 4; read-out: P. aeruginosa 01 Serum MIC
Measured attribute: MIC (µM)

Please review the following examples before continuing.
>  <Cpd smiles>
Cc1nc(-c2ccc(C3(C)CC3)cc2)nc(N)c1C(=O)N[C@@H](CCN)C(=O)N(C)[C@@H]1C(=O)N[C@@H](C)C(=O)N[C@H](C(=O)O)Cc2ccc(OC[C@H](O)CN)c(c2)-c2cc1cc(OC[C@H](O)CN)c2O

>  <Assay system>
Pseudomonas aeruginosa PA01

>  <Units>
µM

>  <MIC>
48

$$$$
>  <Cpd smiles>
Cc1nc(-c2ccc(C3(C)CC3)cc2)ncc1C(=O)N[C@@H](CNS(N)(=O)=O)C(=O)N(C)[C@@H]1C(=O)N[C@@H](C)C(=O)N[C@H](C(=O)O)Cc2ccc(OC[C@H](O)CN)c(c2)-c2cc1cc(OC[C@H](O)CN)c2O

>  <Assay system>
Pseudomonas aeruginosa PA01

>  <Units>
µM

>  <MIC>
20

$$$$

[A] C[C@@H]1NC(=O)[C@@H](N(C)C(=O)[C@H](CNS(N)(=O)=O)NC(=O)c2cnc(-c3ccc(C(C)(C)C)cc3)nc2N)c2cc(OC[C@H](O)CN)c(O)c(c2)-c2cc(ccc2OC[C@H](O)CN)C[C@@H](C(=O)O)NC1=O
[B] Cc1nc(-c2ccc(C(F)(F)C(C)C)cc2)ncc1C(=O)N[C@@H](CNS(N)(=O)=O)C(=O)N(C)[C@@H]1C(=O)N[C@@H](C)C(=O)N[C@H](C(=O)O)Cc2ccc(OC[C@H](O)CN)c(c2)-c2cc1cc(OC[C@H](O)CN)c2O
query: // returns A or B , whichever has the lower MIC Refer to your chosen entry by its label in the reply.
result: A
(A: 16 µM, B: 32 µM)

###

Test system: Klebsiella pneumoniae ATCC 700603
Protocol notes: Serum MIC, broth micro-dilution
Format: cell-based
Condition parameters: Klebsiella pneumoniae, ATCC700603; 50% v/v mouse serum in Mueller Hinton II cation adjusted Broth, 35° C., 22 hours; Table 4; read-out: K pneumoniae 700603 Serum MIC
Measured attribute: MIC (µM)

>  <Compound>
Cc1nc(-c2cc3c(cc2O)C(C)(C)CC3)nc(N)c1C(=O)N[C@@H](CNS(N)(=O)=O)C(=O)N(C)[C@@H]1C(=O)N[C@@H](C)C(=O)N[C@H](C(=O)O)Cc2ccc(OC[C@H](O)CN)c(c2)-c2cc1cc(OC[C@H](O)CN)c2O [Example 57]

>  <MIC [µM]>
1

$$$$
>  <Compound>
Cc1nc(-c2c(O)cc3c(c2O)CCC3(C)C)nc(N)c1C(=O)N[C@@H](CNS(N)(=O)=O)C(=O)N(C)[C@@H]1C(=O)N[C@@H](C)C(=O)N[C@H](C(=O)O)Cc2ccc(OC[C@H](O)CN)c(c2)-c2cc1cc(OC[C@H](O)CN)c2O [Example 52]

>  <MIC [µM]>
1

$$$$

###

System: Pseudomonas aeruginosa PA01
Protocol notes: Serum MIC, broth micro-dilution
Assay type: cell-based
Condition parameters: Pseudomonas aeruginosa, PA01; 50% v/v mouse serum in Mueller Hinton II cation adjusted Broth, 35° C., 22 hours; Table 4; read-out: P. aeruginosa 01 Serum MIC
Measured attribute: MIC (µM)

Before answering, review these 2 worked examples.
>  <Molecule>
C[C@@H]1NC(=O)[C@@H](N(C)C(=O)[C@H](CCN)NC(=O)c2cnn(-c3ccc(C4(C)CC4)cc3)c(=O)c2)c2cc(OC[C@H](O)CN)c(O)c(c2)-c2cc(ccc2OC[C@H](O)CN)C[C@@H](C(=O)O)NC1=O [Example 29]

>  <MIC [µM]>
64

$$$$
>  <Molecule>
Cc1nc(-c2ccc(OCCC(C)(C)C)cc2)ncc1C(=O)N[C@@H](CCN)C(=O)N(C)[C@@H]1C(=O)N[C@@H](C)C(=O)N[C@H](C(=O)O)Cc2ccc(OC[C@H](O)CN)c(c2)-c2cc1cc(OC[C@H](O)CN)c2O [Example 27]

>  <MIC [µM]>
8

$$$$

[a] C[C@@H]1NC(=O)[C@@H](N(C)C(=O)[C@H](CNS(N)(=O)=O)NC(=O)c2c(Cl)cc(-c3ccc(C(C)(C)C)cc3)nc2N)c2cc(OC[C@H](O)CN)c(O)c(c2)-c2cc(ccc2OC[C@H](O)CN)C[C@@H](C(=O)O)NC1=O [Example 40]
[b] Cc1nc(-c2ccc(C3(C)CC3)cc2)ncc1C(=O)N[C@@H](CCN)C(=O)N(C)[C@@H]1C(=O)N[C@@H](C)C(=O)N[C@H](C(=O)O)Cc2ccc(OC[C@@H](O)CN)c(c2)-c2cc1cc(OC[C@@H](O)CN)c2O [Example 73]
query: Could you tell me which of a and b has the lower MIC reading? Refer to your chosen item by its label in the answer.
result: a
(a: 8 µM, b: 64 µM)

###

Tested on: Klebsiella pneumoniae ATCC 700603
Protocol notes: Serum MIC, broth micro-dilution
Format: cell-based
Condition parameters: Klebsiella pneumoniae, ATCC700603; 50% v/v mouse serum in Mueller Hinton II cation adjusted Broth, 35° C., 22 hours; Table 4; read-out: K pneumoniae 700603 Serum MIC
Measured attribute: MIC (µM)

>  <Molecule>
Cc1nc(-c2ccc3c(c2)CCC3(C)C)nc(N)c1C(=O)N[C@@H](CNS(N)(=O)=O)C(=O)N(C)[C@@H]1C(=O)N[C@@H](C)C(=O)N[C@H](C(=O)O)Cc2ccc(OC[C@H](O)CN)c(c2)-c2cc1cc(OC[C@H](O)CN)c2O [Example 66]

>  <Assay system>
Klebsiella pneumoniae ATCC 700603

>  <Units>
µM

>  <MIC>
0.75

$$$$
>  <Molecule>
CNc1nc(-c2ccc(C(C)(C)C)cc2)nc(C)c1C(=O)N[C@@H](CNS(N)(=O)=O)C(=O)N(C)[C@@H]1C(=O)N[C@@H](C)C(=O)N[C@H](C(=O)O)Cc2ccc(OC[C@H](O)CN)c(c2)-c2cc1cc(OC[C@H](O)CN)c2O [Example 56]

>  <Assay system>
Klebsiella pneumoniae ATCC 700603

>  <Units>
µM

>  <MIC>
0.5

$$$$
>  <Molecule>
Cc1nc(N2CCC(C(C)(C)C)CC2)nc(N)c1C(=O)N[C@@H](CCN)C(=O)N(C)[C@@H]1C(=O)N[C@@H](C)C(=O)N[C@H](C(=O)O)Cc2ccc(OC[C@H](O)CN)c(c2)-c2cc1cc(OC[C@H](O)CN)c2O [Example 25]

>  <Assay system>
Klebsiella pneumoniae ATCC 700603

>  <Units>
µM

>  <MIC>
0.5

$$$$
>  <Molecule>
Cc1nc(-c2ccc(C(C)(C)C)cc2O)nc(N)c1C(=O)N[C@@H](CNS(N)(=O)=O)C(=O)N(C)[C@@H]1C(=O)N[C@@H](C)C(=O)N[C@H](C(=O)O)Cc2ccc(OC[C@H](O)CN)c(c2)-c2cc1cc(OC[C@H](O)CN)c2O [Example 44]

>  <Assay system>
Klebsiella pneumoniae ATCC 700603

>  <Units>
µM

>  <MIC>
0.5

$$$$
>  <Molecule>
C[C@@H]1NC(=O)[C@@H](N(C)C(=O)[C@H](CCN)NC(=O)c2cnn(-c3ccc(OCCC(C)(C)C)cc3)c(=O)c2)c2cc(OC[C@H](O)CN)c(O)c(c2)-c2cc(ccc2OC[C@H](O)CN)C[C@@H](C(=O)O)NC1=O [Example 22]

>  <Assay system>
Klebsiella pneumoniae ATCC 700603

>  <Units>
µM

>  <MIC>
0.5

$$$$
>  <Molecule>
Cc1cc(C(C)(C)C)cc(O)c1-c1nc(C)c(C(=O)N[C@@H](CNS(N)(=O)=O)C(=O)N(C)[C@@H]2C(=O)N[C@@H](C)C(=O)N[C@H](C(=O)O)Cc3ccc(OC[C@H](O)CN)c(c3)-c3cc2cc(OC[C@H](O)CN)c3O)c(N)n1 [Example 48]

>  <Assay system>
Klebsiella pneumoniae ATCC 700603

>  <Units>
µM

>  <MIC>
1

$$$$

[a] C[C@@H]1NC(=O)[C@@H](N(C)C(=O)[C@H](CCN)NC(=O)c2cnn(-c3ccc(C4(C)CC4)cc3)c(=O)c2)c2cc(OC[C@H](O)CN)c(O)c(c2)-c2cc(ccc2OC[C@H](O)CN)C[C@@H](C(=O)O)NC1=O [Example 29]
[b] Cc1nc(-c2ccc(OCCC(C)(C)C)nc2)nc(N)c1C(=O)N[C@@H](CNS(N)(=O)=O)C(=O)N(C)[C@@H]1C(=O)N[C@@H](C)C(=O)N[C@H](C(=O)O)Cc2ccc(OC[C@H](O)CN)c(c2)-c2cc1cc(OC[C@H](O)CN)c2O [Example 54]
query: Identify the item whose MIC is the smaller number: a or b Please reply using the label of the selected record.
result: b
(b: 0.5 µM, a: 1.8 µM)
